Molecular target: T1, P66 (rabbit ANGPTL7-his) (rabbit, UniProt G1T4P1 27-344)
T1 construct: mature; also called rabbit ANGPTL7 protein
T1 sequence: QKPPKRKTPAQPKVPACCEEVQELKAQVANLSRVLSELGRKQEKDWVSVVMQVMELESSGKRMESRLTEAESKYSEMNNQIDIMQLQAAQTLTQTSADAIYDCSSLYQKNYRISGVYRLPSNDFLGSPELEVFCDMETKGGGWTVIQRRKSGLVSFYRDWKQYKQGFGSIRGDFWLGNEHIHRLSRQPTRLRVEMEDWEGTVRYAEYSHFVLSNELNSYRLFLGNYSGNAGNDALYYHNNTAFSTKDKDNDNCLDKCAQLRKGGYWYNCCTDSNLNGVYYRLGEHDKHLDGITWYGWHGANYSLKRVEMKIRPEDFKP
Assay: BLI Octet HTX; IgG on AHC sensor; P66 at 200 nM; 1:1 fit
Protocol: Experiments were also conducted to determine the reactivity and dissociation constants ([…]) of anti-ANGPTL7 antibodies with the rabbit ANGPTL7 protein. Binding experiments were performed on Octet HTX (ForteBio) in Rx PBS, pH 7.4, 0.1 mg/mi BSA, 0.05% Sodium Azide, and 0.02% Tween 20. Antibodies at a concentration of 50 nM were loaded on pre-hydrated AHC biosensors for 5 min. […] Responses (nm) at the end of association were also determined (Table 6).
Measured Response accompanies every entry in the list below.
Answer in nm, number only, no unit symbol.

[[record]]
binder = "ATX-P-433 (antibody, IgG1, V domains shown, Full chains (VH + hIgG1-Agly-Fc)) VH: EVQLVESGGGLVQPGRSLRLSCAASGFTFDDFAMHWVRQGPGKGLEWVSGIGWNSGSIGYADSVKGRFTISRDNAKNSLYLQMNSLRAEDTALYYCAKAPDYGDYYFDYWGQGTLVTVSS VL: DIQMTQSPSSLSASVGDRVTITCRASQSISIYLNWYQQKPGTAPKLLIYAASSLQSGVPSRFSGSGSGTDFTLTISSLQPEDFAAYYCQQSYTTPLTFGGGTKVEIKR"
recorded_endpoint = "Response"
measurement = 0.9

[[record]]
binder = "ATX-P-440 (antibody, human IgG1, kappa, N297A, V domains shown, Full chains (VH + hIgG1-Agly-Fc)) VH: EVQLVESGGGVVRPGGSLRLSCAASGFTFDDYGMSWVRQAPGKGLEWVSTINWNGGNTGYADSVKGRFTISRDNAKNSLYLQMNSLRAEDTALYYCARDEGAAGLGYYFDYWGQGTLVTVSS VL: DIQMTQSPSTLSASVGDRVTITCRASQSISSWLAWYQQKPGKAPKLLIYATSSLQSGVPSRFSGSGSGTDFTLTISSLQPEDFATYYCQQSYSTPITFGQGTRLEIKR"
recorded_endpoint = "Response"
measurement = 0.57


Next, consider the following binder.
Given ATX-P-424 (antibody, human IgG1, kappa, N297A, V domains shown, Full chains (VH + hIgG1-Agly-Fc)) VH: EVQLVESGGGLVKPGGSLRLSCAASGFTFSSYSMNWVRQAPGKGLEWVSSITSSSYIFYADSLKGRFTISRDNAKNSLFLQMNSLRAEDTAVYYCARDSNWGEAFDIWGQGTMVTVSS VL: DIQMTQSPSSLSASVGDRVTITCRASQGIRNDLGWYQQKPGKAPKRLIYAASSLPSGVPSRFSGSGSGTEFTLTISSLQPEDFAIYYCLQHNSYPWTFGQGTKVEIKR , state its recorded Response. 0.93
